Literature compilation of pKi measurements on Histone deacetylase 9 (Homo sapiens, UniProt Q9UKV0).
Sequence (Q9UKV0 whole entry): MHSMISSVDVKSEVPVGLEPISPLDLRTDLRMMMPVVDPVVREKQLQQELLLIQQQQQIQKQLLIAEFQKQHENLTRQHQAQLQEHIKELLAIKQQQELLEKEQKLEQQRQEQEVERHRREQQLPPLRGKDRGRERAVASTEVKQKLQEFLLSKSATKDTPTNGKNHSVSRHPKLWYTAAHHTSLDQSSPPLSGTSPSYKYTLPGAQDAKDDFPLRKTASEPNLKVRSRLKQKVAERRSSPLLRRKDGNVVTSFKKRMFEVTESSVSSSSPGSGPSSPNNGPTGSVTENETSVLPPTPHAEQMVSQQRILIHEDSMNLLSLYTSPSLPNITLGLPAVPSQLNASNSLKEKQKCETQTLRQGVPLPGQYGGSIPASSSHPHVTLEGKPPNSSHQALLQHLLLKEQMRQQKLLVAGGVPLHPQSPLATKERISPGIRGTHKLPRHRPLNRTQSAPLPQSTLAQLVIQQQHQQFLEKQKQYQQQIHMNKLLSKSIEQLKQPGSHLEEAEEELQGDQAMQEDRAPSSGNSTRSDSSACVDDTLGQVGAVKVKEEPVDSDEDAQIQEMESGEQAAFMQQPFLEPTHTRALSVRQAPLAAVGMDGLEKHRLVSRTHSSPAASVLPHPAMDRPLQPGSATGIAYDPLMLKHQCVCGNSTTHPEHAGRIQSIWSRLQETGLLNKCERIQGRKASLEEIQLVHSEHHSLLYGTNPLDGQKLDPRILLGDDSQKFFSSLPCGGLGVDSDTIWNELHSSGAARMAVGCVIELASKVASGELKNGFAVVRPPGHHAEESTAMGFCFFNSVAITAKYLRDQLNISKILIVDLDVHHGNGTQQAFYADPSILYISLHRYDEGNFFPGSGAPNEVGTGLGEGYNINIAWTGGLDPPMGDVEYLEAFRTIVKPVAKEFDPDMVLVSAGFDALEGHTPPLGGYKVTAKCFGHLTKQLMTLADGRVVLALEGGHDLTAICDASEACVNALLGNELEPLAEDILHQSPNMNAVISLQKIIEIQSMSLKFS
One number for each entry, as −log10 of the molar value.

Reference set, count: 4
{"Smiles entry": "O=C(CCCCCCC(=O)Nc1ccc([C@H]2O[C@@H](CSc3ccncc3)C[C@@H](c3ccccc3)O2)cc1)NO", "Study system": "Histone deacetylase 9 (Homo sapiens, UniProt Q9UKV0)", "pKi": 5.21}
{"Smiles entry": "CN1CCC(CNC(=O)c2cccc(C(=O)NO)c2)(c2nc(-c3ccccc3)cs2)CC1", "Study system": "Histone deacetylase 9 (Homo sapiens, UniProt Q9UKV0)", "pKi": 5.22}
{"Smiles entry": "CN(C)CC(C)(C)Cn1c(CCc2ccccc2)nc2cc(/C=C/C(=O)NO)ccc21", "Study system": "Histone deacetylase 9 (Homo sapiens, UniProt Q9UKV0)", "pKi": 7.68}
{"Smiles entry": "CC/C=C\\CCc1nc2cc(/C=C/C(=O)NO)ccc2n1CCNCC", "Study system": "Histone deacetylase 9 (Homo sapiens, UniProt Q9UKV0)", "pKi": 8.24}

Exercise: Tell me its pKi given O=C(CCCCCNC(=O)NC(=O)c1ccc(Br)cc1)NO as the entry.
Solution: 8.22
